Please respond with reported self-cleavage for every item in the list.
B1: HDV Ribozyme (parent)
chain: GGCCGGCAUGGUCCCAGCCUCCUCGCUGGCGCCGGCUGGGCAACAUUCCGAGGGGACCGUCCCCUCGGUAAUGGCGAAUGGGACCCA

variants of: B1; test: self-cleavage, relative activity (ratio to wild type); higher = more cleavage; co-transcriptional
Respond numerically, and do not add a unit to the figure.

Item GGCCGGCAUAGUCCCAGCCUCCUCGCGGGCGCCGGCUGGGCAACAUUCCGAGGGGACCGUCCCCUCGGUAAUGGCGAAUGGGACCCA [G10A U27G] has what recorded self-cleavage?
0.98

Item GGCCGGCAUGGUCCCAGCCUCCUCCCUGGCGCCGGCUGGGCAACAUUCCUAGGGGACCGUCCCCUCGGUAAUGGCGAAUGGGACCCA [G25C G50U] has what recorded self-cleavage?
0.0811

Item GGCCGGCAUGGUCCCAGCCUCCUCGCUGGCGCCGGCUGGCCAAAAUUCCGAGGGGACCGUCCCCUCGGUAAUGGCGAAUGGGACCCA [G40C C44A] has what recorded self-cleavage?
0.0468

Item GGCCGGCAUGGUCCCAGCCUCCUCGCUGGCGCCGGCUGGGCAACAUUCCCAGGGGUCCGUCCCCUCGGUAAUGGCGAAUGGGACCCA [G50C A56U] has what recorded self-cleavage?
0.935

Item GGCCGGCAUGGUCCCAGCCCCCUCGCUGGCGCCGGCCGGGCAACAUUCCGAGGGGACCGUCCCCUCGGUAAUGGCGAAUGGGACCCA [U20C U37C] has what recorded self-cleavage?
0.252

Item GGCCGGCAUGGUCCCAGCCUCCUCGCUGGCGCCGGCUGGGCAACAUUCCGAGGGGACCGUCCCCGCGGUAAUGGCGAAUGGGACGCA [U65G C85G] has what recorded self-cleavage?
0.692

Item GGUCGGCAUGGUCCCAGCCUCCUGGCUGGCGCCGGCUGGGCAACAUUCCGAGGGGACCGUCCCCUCGGUAAUGGCGAAUGGGACCCA [C3U C24G] has what recorded self-cleavage?
0.0782

Item GGCCGGUAUGGUCCCAGCCUCCUCGCUGGCGCCGGCGGGGCAACAUUCCGAGGGGACCGUCCCCUCGGUAAUGGCGAAUGGGACCCA [C7U U37G] has what recorded self-cleavage?
0.19

Item GGCCGGCAUGGUCCCAGCCUCCUCGCUGGCGCCGGCUGGUCAACCUUCCGAGGGGACCGUCCCCUCGGUAAUGGCGAAUGGGACCCA [G40U A45C] has what recorded self-cleavage?
0.295

Item UGCCGGCAUGGUCCCAGCCUCCUCGCUGGCGCCGGCUGGGCAACAUUCCGAGGGCACCGUCCCCUCGGUAAUGGCGAAUGGGACCCA [G1U G55C] has what recorded self-cleavage?
0.455

Item GGCCGGCAUGGUCCCAGCCUCCUCGCUGGCGCCGGCUGGGCAACAUUCCGAUGGGACCGUCCCCUCGGUAAUGGCGAAUGGGGCCCA [G52U A83G] has what recorded self-cleavage?
0.81

Item GGCCGGCAUGGUCCCAGCCUCCUUGCUGGCGCCGGCUGGGCAACAUUCCGAGGGGACCGUCCCCACGGUAAUGGCGAAUGGGACCCA [C24U U65A] has what recorded self-cleavage?
0.469

Item GGCAGGCAUGGUCCCAGCCUCCUCACUGGCGCCGGCUGGGCAACAUUCCGAGGGGACCGUCCCCUCGGUAAUGGCGAAUGGGACCCA [C4A G25A] has what recorded self-cleavage?
0.089

Item GGCCGGCAUGGUCCCAGCCUCCUCGCUCGCGCCGGCUGGGCAACAUUCCGAGGGGACCGUCCCCUCGGUAAUGGCGAUUGGGACCCA [G28C A78U] has what recorded self-cleavage?
0.0811

Item GGCCGGCAUGGUCCAAGCCUCCUCGCUGCCGCCGGCUGGGCAACAUUCCGAGGGGACCGUCCCCUCGGUAAUGGCGAAUGGGACCCA [C15A G29C] has what recorded self-cleavage?
0.0692

Item AGCCGGCAUGGUCCCAGCCUCCUCGCUGGCGCCGGCUGGGCAACAUUCCCAGGGGACCGUCCCCUCGGUAAUGGCGAAUGGGACCCA [G1A G50C] has what recorded self-cleavage?
0.302

Item GGCCGGCAUGGUCCCUGCCUCCUCGCUGGCGCCGGCUGGGCAACACUCCGAGGGGACCGUCCCCUCGGUAAUGGCGAAUGGGACCCA [A16U U46C] has what recorded self-cleavage?
1.21

Item GGCCGGCAUGGUCCCAGCCUCCUCGCUGGCGCCAGCUGGGCAACAUUCCGAGGGGACCGUCCCCUCGGUAAUGGCGAAUGGAACCCA [G34A G82A] has what recorded self-cleavage?
0.0671

Item GGCCGGCAUGAUCCCAGCCUCCUCGCUGGCGACGGCUGGGCAACAUUCCGAGGGGACCGUCCCCUCGGUAAUGGCGAAUGGGACCCA [G11A C32A] has what recorded self-cleavage?
0.0231

Item GGCCGGCAUGGUCUCAGCCUCCUCGCUGGCGCCGGCUGGGCAACAUUCCGAGGGGACCGUCCCCUCGGUAAUGGCGAAUGGGACGCA [C14U C85G] has what recorded self-cleavage?
0.712
